# assayed.system: NAD-dependent protein deacetylase sirtuin-7 (Homo sapiens)
# assay.procedure: Substrate activity at human N-terminal His-tagged SIRT7 (68 to 354 residues) expressed in Escherichia coli at 5 uM measured after 2 hrs in presence of NAD+ and trypsin by fluorescence assay
*1 amine or outer side, *2 acyl side, *3 side chain or, on linkers, in order; H or OH if unused. Where a SMILES comes first, the peptide text is derived from it. The star is where a group is joined. AMC = Cc1cc(=O)oc2cc(N*)ccc12; Suc = O=C(CCC(=O)[*:2])[*:1]; Decanoyl = CCCCCCCCCC(=O)*
quantity.name: Activity (RFU)
Field format: number, assumed RFU, no unit text.

Previously resolved entries follow.
| compound | quantity.name | data.value |
| --- | --- | --- |
| CC(=O)N[C@@H](CO)C(=O)N[C@@H](CC(C)C)C(=O)NCC(=O)N[C@@H](CCCCNC(=O)CCC(=O)O)C(=O)Nc1ccc2c(C)cc(=O)oc2c1 (Ac-SLGK(Suc)-{AMC}) | Activity | 0.41 |
| CC(=O)NCCCC[C@H](NC(=O)[C@H](CO)NC(=O)[C@H](Cc1ccccc1)NC(=O)[C@H](CC(=O)O)NC(C)=O)C(=O)Nc1ccc2c(C)cc(=O)oc2c1 (Ac-DFSK(Ac)-{AMC}) | Activity | 0.65 |
| CCCCCCCCCC(=O)NCCCC[C@H](NC(=O)[C@H](CCCNC(=N)N)NC(=O)[C@H](CC(C)C)NC(=O)[C@H](CC(=O)O)NC(C)=O)C(=O)Nc1ccc2c(C)cc(=O)oc2c1 (Ac-DLRK(Decanoyl)-{AMC}) | Activity | 0.3 |
| CC(=O)N[C@@H](CC(C)C)C(=O)NCC(=O)N[C@@H](CO)C(=O)N[C@@H](CCCCNC(=O)CCC(=O)O)C(=O)Nc1ccc2c(C)cc(=O)oc2c1 (Ac-LGSK(Suc)-{AMC}) | Activity | 0.32 |
| CCCCCCCCCC(=O)NCCCC[C@H](NC(=O)[C@H](CCCCN)NC(=O)[C@@H]1CCCN1C(=O)[C@H](CC(N)=O)NC(C)=O)C(=O)Nc1ccc2c(C)cc(=O)oc2c1 (Ac-NPKK(Decanoyl)-{AMC}) | Activity | 0.49 |

Complete the entry with Activity for CC(=O)NCCCC[C@H](NC(=O)[C@H](CC(C)C)NC(=O)[C@H](CCCCN)NC(=O)[C@H](Cc1ccc(O)cc1)NC(C)=O)C(=O)Nc1ccc2c(C)cc(=O)oc2c1 (Ac-YKLK(Ac)-{AMC})
1.09

Complete the entry with Activity for CC(=O)NCCCC[C@H](NC(=O)[C@H](CCCCN)NC(=O)[C@H](Cc1cnc[nH]1)NC(=O)[C@H](CCCNC(=N)N)NC(C)=O)C(=O)Nc1ccc2c(C)cc(=O)oc2c1 (Ac-RHKK(Ac)-{AMC})
0.33

Complete the entry with Activity for CCCCCCCCCC(=O)NCCCC[C@H](NC(=O)[C@H](CCCNC(=N)N)NC(=O)[C@H](C)NC(=O)[C@@H](NC(C)=O)[C@@H](C)O)C(=O)Nc1ccc2c(C)cc(=O)oc2c1 (Ac-TARK(Decanoyl)-{AMC})
0.35

Complete the entry with Activity for CC(=O)N[C@@H](Cc1cnc[nH]1)C(=O)N[C@@H](Cc1ccccc1)C(=O)N[C@@H](CO)C(=O)N[C@@H](CCCCNC(=O)CCC(=O)O)C(=O)Nc1ccc2c(C)cc(=O)oc2c1 (Ac-HFSK(Suc)-{AMC})
1.36

Complete the entry with Activity for CCCCCCCCCC(=O)NCCCC[C@H](NC(=O)[C@H](CCC(N)=O)NC(=O)[C@@H](NC(=O)[C@H](CCCCN)NC(C)=O)C(C)C)C(=O)Nc1ccc2c(C)cc(=O)oc2c1 (Ac-KVQK(Decanoyl)-{AMC})
0.44

Complete the entry with Activity for CC(=O)NCCCC[C@H](NC(=O)[C@H](CCCNC(=N)N)NC(=O)[C@H](C)NC(=O)[C@@H](NC(C)=O)[C@@H](C)O)C(=O)Nc1ccc2c(C)cc(=O)oc2c1 (Ac-TARK(Ac)-{AMC})
0.28

These measurements were taken from ChEMBL document CHEMBL4680222.
